- assay.notes: Lipophilic-hydrophilic balance, Rm of the compound by partition chromatography
- Format: physicochemical
# if value of Rm reaches 0.3, tag Y; if it stays below, tag N

Look over these answered cases.
{"given.smiles": "CCC[n+]1cccc2cc(NC(=O)CCc3ccc(C(=O)Nc4ccc5c(ccc[n+]5CCC)c4)cc3)ccc21.Cc1ccc(S(=O)(=O)[O-])cc1.Cc1ccc(S(=O)(=O)[O-])cc1", "assigned.label": "Y"}
{"given.smiles": "CC[n+]1cccc(-c2ccc(NC(=O)c3ccc(C(=O)Nc4ccc(-c5ccc(-c6ccc(-c7ccc[n+](CC)c7)cc6)cc5)cc4)cc3)cc2)c1.Cc1ccc(S(=O)(=O)[O-])cc1.Cc1ccc(S(=O)(=O)[O-])cc1", "assigned.label": "N"}
{"given.smiles": "CCC[n+]1ccccc1NC(=O)c1ccc(NC(=O)c2ccc(C(=O)Nc3ccc(C(=O)Nc4cccc[n+]4CCC)cc3)cc2)cc1.Cc1ccc(S(=O)(=O)[O-])cc1.Cc1ccc(S(=O)(=O)[O-])cc1", "assigned.label": "Y"}

input: Test whether the molecule `CCCC[n+]1cccc2cc(NC(=O)c3ccc(C(=O)Nc4ccc5c(ccc[n+]5CCCC)c4)nc3)ccc21.Cc1ccc(S(=O)(=O)[O-])cc1.Cc1ccc(S(=O)(=O)[O-])cc1` records Rm of 0.3 or higher.
output: Y

input: Test whether the molecule `Cc1cc(C(=O)Nc2ccc[n+](C)c2)ccc1NC(=O)c1ccc(C(=O)Nc2ccc(C(=O)Nc3ccc[n+](C)c3)cc2C)cc1.Cc1ccc(S(=O)(=O)[O-])cc1.Cc1ccc(S(=O)(=O)[O-])cc1` records Rm of 0.3 or higher.
output: N

input: Test whether the molecule `CCCCC[n+]1cccc2cc(NC(=O)c3ccc(C(=O)Nc4ccc5c(ccc[n+]5CCCCC)c4)nc3)ccc21.Cc1ccc(S(=O)(=O)[O-])cc1.Cc1ccc(S(=O)(=O)[O-])cc1` records Rm of 0.3 or higher.
output: Y

* * *

- assay.notes: Displacement of ethidium from poly[d(A-T)]-poly[d(A-T)] DNA by fluorimetric method
outcome.measure: C50 (µM)
Give bare numbers, in µM.

{"given.smiles": "C[n+]1cccc2cc(NC(=O)c3ccc(C(=O)Nc4ccc(NC(=O)c5ccc6c(ccc[n+]6C)c5)cc4)cc3)ccc21.Cc1ccc(S(=O)(=O)[O-])cc1.Cc1ccc(S(=O)(=O)[O-])cc1", "C50 / µM": 0.35}
{"given.smiles": "C[n+]1ccc(Nc2ccc(NC(=O)c3ccc(Nc4nc[n+](C)c5ccc(N)cc45)cc3)cc2)cc1.Cc1ccc(S(=O)(=O)[O-])cc1.Cc1ccc(S(=O)(=O)[O-])cc1", "C50 / µM": 0.5}
{"given.smiles": "Cn1cc(NC(=O)c2cc(NC(=O)c3cc(NC=O)cn3C)cn2C)cc1C(=O)NCCC(=N)N", "C50 / µM": 0.07}

Consider the record given below.
input: Identify measured C50 corresponding to `CC[n+]1ccc(Nc2ccc(NC(=O)c3ccc(Nc4cc[n+](CC)c5cc(N)ccc45)cc3N)cc2)cc1.[Br-].[Br-]`
output: 0.13

* * *

- System: Mus musculus
- assay.notes: Toxicity in ip dosed C3H X DBA2 F1 hybrid mouse […] with mouse L1210 cells on day 0 and dosed once daily on days 1 to 5 measured after 50 days
- Type: organism-based
- stated.conditions: in vivo, 1200 h
Assignment: determine reported log10 LD10 for the given compounds.
For clarity, the numbers are log10 values of LD10 expressed in mg/kg.

Solved cases (4 shown):
{"given.smiles": "C[n+]1cccc2ccc(NC(=O)c3ccc(NC(=O)c4ccc(C(=O)Nc5ccc6ccc[n+](C)c6c5)cc4)cc3)cc21.Cc1ccc(S(=O)(=O)[O-])cc1.Cc1ccc(S(=O)(=O)[O-])cc1", "measurement.target": "Mus musculus", "log10 LD10": 1.53}
{"given.smiles": "C[n+]1ccc(Nc2ccc(C(=O)Nc3ccc(Nc4cc[n+](C)c5ccc(N)cc45)cc3)cc2)cc1.Cc1ccc(S(=O)(=O)[O-])cc1.Cc1ccc(S(=O)(=O)[O-])cc1", "measurement.target": "Mus musculus", "log10 LD10": 1.04}
{"given.smiles": "C[n+]1ccc(Nc2ccc(NC(=O)c3ccc(Nc4nc[n+](C)c5ccc(N)cc45)cc3)cc2)cc1.Cc1ccc(S(=O)(=O)[O-])cc1.Cc1ccc(S(=O)(=O)[O-])cc1", "measurement.target": "Mus musculus", "log10 LD10": 0.48}
{"given.smiles": "C[n+]1cccc(-c2ccc(NC(=O)c3ccc(C(=O)Nc4ccc(-c5ccc(-c6ccc(-c7ccc[n+](C)c7)cc6)cc5)cc4)cc3)cc2)c1.Cc1ccc(S(=O)(=O)[O-])cc1.Cc1ccc(S(=O)(=O)[O-])cc1", "measurement.target": "Mus musculus", "log10 LD10": 1.81}

Consider the record given below.
input: Enter recorded log10 LD10 with Mus musculus for `C[n+]1ccc(Nc2ccc(C(=O)Nc3ccc(Nc4cc[n+](C)c5cc(N)ccc45)cc3)cc2)cc1.Cc1ccc(S(=O)(=O)[O-])cc1.Cc1ccc(S(=O)(=O)[O-])cc1` here.
output: 1.40

* * *

- assay.notes: Displacement of ethidium from poly[d(G-C)]-poly[d(G-C)] DNA (unknown origin) by fluorimetric method
Assignment: determine reported C50 for the given compounds.
Answers are plain numbers, in µM.

{"given.smiles": "COc1cc(NC(=O)c2ccc(Nc3cc[n+](C)cc3)cc2)ccc1Nc1cc[n+](C)c2cc(N)ccc12.[Br-].[Br-]", "unit.of.measurement": "µM", "C50": 1.18}
{"given.smiles": "C[n+]1ccc(Nc2ccc(NC(=O)/C=C/c3ccc(Nc4cc[n+](C)c5ccccc45)cc3)cc2)cc1.[Br-].[Br-]", "unit.of.measurement": "µM", "C50": 0.71}
{"given.smiles": "Br.C/C(=N\\NC(=N)N)c1ccc(NC(=O)c2ccc(Nc3cc[n+](C)c4ccc(N)cc34)cc2N)cc1.[Br-]", "unit.of.measurement": "µM", "C50": 0.78}
{"given.smiles": "C[n+]1ccc(Nc2ccc(C(=O)Nc3ccc(Nc4cc[n+](C)c5ccccc45)cc3)cc2)cc1.Cc1ccc(S(=O)(=O)[O-])cc1.Cc1ccc(S(=O)(=O)[O-])cc1", "unit.of.measurement": "µM", "C50": 3}
{"given.smiles": "Cc1cc(C(=O)Nc2ccc(C(=O)Nc3ccc[n+](C)c3)cc2)ccc1C(=O)Nc1ccc(C(=O)Nc2ccc[n+](C)c2)cc1.Cc1ccc(S(=O)(=O)[O-])cc1.Cc1ccc(S(=O)(=O)[O-])cc1", "unit.of.measurement": "µM", "C50": 2.4}

Consider the record given below.
input: Identify measured C50 corresponding to `Cc1ccc(S(=O)(=O)[O-])cc1.Cc1ccc(S(=O)(=O)[O-])cc1.Cc1cccc2c(Nc3ccc(C(=O)Nc4ccc(Nc5cc[n+](C)cc5)cc4)cc3)cc[n+](C)c12`
output: 2.01

* * *

- Test system: L1210
- assay.notes: Antitumor activity against mouse L1210 cells […] in ip dosed C3H X DBA2 F1 hybrid mouse on day 0 and dosed once daily on days 1 to 5 assessed as increase in life span relative to control
- Assay type: functional
// assign t if D40 falls strictly below 0.9 mg/kg, else f (ties count as f)

Look over these answered cases.
{"given.smiles": "CC[n+]1cccc2cc(NC(=O)c3ccc(C(=O)Nc4ccc5c(ccc[n+]5CC)c4)nc3)ccc21.Cc1ccc(S(=O)(=O)[O-])cc1.Cc1ccc(S(=O)(=O)[O-])cc1", "assigned.label": "f"}
{"given.smiles": "C[n+]1cccc2cc(NC(=O)c3ccc(-c4ccc(-c5ccc(-c6ccc(C(=O)Nc7ccc8c(ccc[n+]8C)c7)cc6)cc5)cc4)cc3)ccc21.Cc1ccc(S(=O)(=O)[O-])cc1.Cc1ccc(S(=O)(=O)[O-])cc1", "assigned.label": "f"}
{"given.smiles": "C[n+]1cccc(NC(=O)c2ccc(NC(=O)c3ccc(C(=O)Nc4ccc(C(=O)Nc5ccc[n+](C)c5)cc4)c4ccccc34)cc2)c1.Cc1ccc(S(=O)(=O)[O-])cc1.Cc1ccc(S(=O)(=O)[O-])cc1", "assigned.label": "f"}

Here is the next item to consider.
input: Say whether its D40 is strictly beneath 0.9 mg/kg. Entry: `C[n+]1ccc(Nc2ccc(NC(=O)c3ccc(C(=O)Nc4ccc(Nc5cc[n+](C)cc5)cc4)cc3)cc2)cc1.Cc1ccc(S(=O)(=O)[O-])cc1.Cc1ccc(S(=O)(=O)[O-])cc1`
output: t

* * *

- Tested on: Mus musculus
- assay.notes: Toxicity in ip dosed C3H X DBA2 F1 hybrid mouse […] with mouse L1210 cells on day 0 and dosed once daily on days 1 to 5 measured after 50 days
- Assay type: organism-based
- stated.conditions: in vivo, 1200 h
outcome.measure: LD10 (mg/kg)
Give bare numbers, in mg/kg.

{"given.smiles": "CCCC[n+]1cccc(NC(=O)c2ccc(NC(=O)c3ccc(C(=O)Nc4ccc(C(=O)Nc5ccc[n+](CCCC)c5)cc4)cc3)cc2)c1.Cc1ccc(S(=O)(=O)[O-])cc1.Cc1ccc(S(=O)(=O)[O-])cc1", "unit.of.measurement": "mg/kg", "LD10": 58}

Dear colleague, could you send me LD10 for each of the items below? Thanks.
1. C[n+]1ccc(Nc2ccc(NC(=O)CCCCCC(=O)Nc3ccc(Nc4cc[n+](C)cc4)cc3)cc2)cc1.[Br-].[Br-]
2. Br.C/C(=N\NC(=N)N)c1ccc(NC(=O)c2ccc(Nc3cc[n+](C)c4ccccc34)cc2)cc1.[Br-]
3. CCC[n+]1cccc(NC(=O)c2ccc(NC(=O)c3ccc(C(=O)Nc4ccc(C(=O)Nc5ccc[n+](CCC)c5)c(N)c4)cc3)cc2N)c1.Cc1ccc(S(=O)(=O)[O-])cc1.Cc1ccc(S(=O)(=O)[O-])cc1
4. CCCC[n+]1ccc(Nc2ccc(NC(=O)c3ccc(Nc4cc[n+](CCCC)c5ccccc45)cc3)cc2)cc1.[Br-].[Br-]
5. C[n+]1ccc(Nc2ccc(NC(=O)c3ccc(Nc4cc[n+](C)c5cc(N)ccc45)cc3N)cc2)cc1.[Br-].[Br-]

output:
30
33
30
11
20
